# SYSTEM UNDER TEST: UniProtKB Q9NWZ3
# Sequence (Q9NWZ3 whole entry): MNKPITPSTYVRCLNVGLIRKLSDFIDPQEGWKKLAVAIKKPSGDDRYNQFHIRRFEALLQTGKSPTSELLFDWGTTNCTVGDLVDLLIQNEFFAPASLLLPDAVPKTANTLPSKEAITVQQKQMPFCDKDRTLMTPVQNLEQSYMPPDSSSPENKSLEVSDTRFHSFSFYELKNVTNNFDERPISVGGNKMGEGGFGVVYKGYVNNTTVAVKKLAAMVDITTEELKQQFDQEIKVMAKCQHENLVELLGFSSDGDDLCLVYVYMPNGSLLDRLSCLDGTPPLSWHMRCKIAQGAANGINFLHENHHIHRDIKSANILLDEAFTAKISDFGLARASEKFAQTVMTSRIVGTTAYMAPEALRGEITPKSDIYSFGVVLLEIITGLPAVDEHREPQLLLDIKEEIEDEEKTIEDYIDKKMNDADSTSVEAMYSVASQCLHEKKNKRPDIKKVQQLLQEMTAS
# TEST PROTOCOL: IRAK4 ADP-Glo Assay
Give measured pIC50 for each item. Keep answers brief.
pIC50 is defined as minus the log10 of a concentration measured in mol/L.

Inquiry: Given CC(C)Oc1cc2c(OC[C@@H]3CC(F)(F)C(=O)N3)ncc(C#CC3(O)CCN(C(=O)OC(C)(C)C)CC3)c2cc1C(N)=O [US20230391748, Compound I-52] , state its recorded pIC50.
Reply text: 7.74

Inquiry: GET /values?readout=pIC50&item= CC(C)Oc1cc2c(O[C@@H]3CCCNC3)ncc(C#CC3(O)CCCC3)c2cc1C(N)=O [US20230391748, Compound I-85]
Reply text: 7.46
